- tested-on: P2Y1 receptor (Homo sapiens, UniProt P47900)
- Construct: expressed in transfected cells
- Sequence (P47900 whole entry): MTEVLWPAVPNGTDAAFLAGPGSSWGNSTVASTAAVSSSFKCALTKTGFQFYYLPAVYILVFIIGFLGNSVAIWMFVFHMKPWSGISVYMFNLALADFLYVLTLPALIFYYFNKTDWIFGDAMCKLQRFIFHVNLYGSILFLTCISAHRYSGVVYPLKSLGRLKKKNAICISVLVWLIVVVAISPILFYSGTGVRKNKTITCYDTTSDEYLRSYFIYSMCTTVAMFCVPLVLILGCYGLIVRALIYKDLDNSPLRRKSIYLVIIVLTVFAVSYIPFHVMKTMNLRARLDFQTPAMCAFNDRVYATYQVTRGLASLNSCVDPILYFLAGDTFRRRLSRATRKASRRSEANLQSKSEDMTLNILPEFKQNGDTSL
- protocol-text: P2Y1 IP1 accumulation HTRF assay, antagonism of agonist MRS2365 in stably transfected cells
- Format: cell-based
- protocol-conditions: racemic; 5nM MRS2365; values rounded to nearest whole number; N >= 4
Here, each record is paired with measured pIC50 data.
# pIC50: negative log10 of molar concentration; output just the value

// known answers, use as guide
>>> readout_value("O=C(Nc1ccc(OC(F)(F)F)cc1)Nc1cccnc1Oc1ccccc1C1(C(F)F)CCN1CCF (racemic)")
6.92
>>> readout_value("CC(C)(C)CN1CCC1(c1ccccc1Oc1ncccc1NC(=O)Nc1ccc(OC(F)(F)F)cc1)C(F)(F)F (racemic)")
7.41
>>> readout_value("O=C(Nc1ccc(OC(F)(F)F)cc1)Nc1cccnc1Oc1ccccc1C1(C(F)(F)F)CCN1Cc1ccccc1 (racemic)")
7.19

## Input For CN1CCC1(c1ccccc1Oc1ncccc1NC(=O)Nc1ccc(Cl)cc1F)C(F)(F)F (racemic) , what is its reported pIC50?
## Output 7.11

## Input For Cc1ccc(NC(=O)Nc2ccc(OC(F)(F)F)cc2)c(Oc2ccc(F)cc2C2(C(F)(F)F)CCO2)n1 (racemic) , what is its reported pIC50?
## Output 6.92

## Input For O=C(Nc1ccc(OC(F)(F)F)cc1)Nc1cccnc1Oc1ccccc1C1(C(F)(F)F)CCO1 (racemic) , what is its reported pIC50?
## Output 7.08

## Input For Cc1ccc(NC(=O)Nc2nc3ccc(C)nc3s2)c(Oc2ccc(F)cc2C2(C(F)(F)F)CCO2)n1 (racemic) , what is its reported pIC50?
## Output 6.71

## Input For O=C(Nc1ccc(OC(F)(F)F)cc1)Nc1ccc(Cl)nc1Oc1ccccc1C1(C(F)(F)F)CCO1 (racemic) , what is its reported pIC50?
## Output 6.90

Source: patent EP4095134A1
